Tested on: Human immunodeficiency virus 1
Test: Antiviral activity against R5-tropic Human immunodeficiency virus 1 Ba-L subtype B infected in human PBMC assessed as inhibition of viral replication after 7 days by ELISA
Format: functional, organism-based
Conditions: 168 h
quantity.kind: EC50 (µM)

[[record]]
structure_as_smiles = "Cc1cn([C@H]2C[C@H](N=[N+]=[N-])[C@@H](CO)O2)c(=O)[nH]c1=O"
experimental_target = "Human immunodeficiency virus 1"
quantity_kind = "EC50"
uom = "µM"
measured_number = 0.16

[[record]]
structure_as_smiles = "CCOC(=O)c1cn(CP(=O)(OC(C)C)OC(C)C)c2ccc(Cl)cc2c1=O"
experimental_target = "Human immunodeficiency virus 1"
quantity_kind = "EC50"
uom = "µM"
measured_number = 8.1

[[record]]
structure_as_smiles = "CCOC(=O)c1cn(CP(=O)(OC(C)C)OC(C)C)c2cc(C)ccc2c1=O"
experimental_target = "Human immunodeficiency virus 1"
quantity_kind = "EC50"
uom = "µM"
measured_number = 9

[[record]]
structure_as_smiles = "CCOC(=O)c1cn(CP(=O)(OC(C)C)OC(C)C)c2cc(Cl)ccc2c1=O"
experimental_target = "Human immunodeficiency virus 1"
quantity_kind = "EC50"
uom = "µM"
measured_number = 21

[[record]]
structure_as_smiles = "CCOC(=O)c1cn(CP(=O)(OC(C)C)OC(C)C)c2ccc(Br)cc2c1=O"
experimental_target = "Human immunodeficiency virus 1"
quantity_kind = "EC50"
uom = "µM"
measured_number = 56


(1) CCOC(=O)c1cn(CP(=O)(OC(C)C)OC(C)C)c2cc([N+](=O)[O-])ccc2c1=O
(2) CCOC(=O)c1cn(CP(=O)(OC(C)C)OC(C)C)c2ccc(F)cc2c1=O
Data request: I'm curious whether 1 or 2 has the smaller EC50 number. Which is it? State the label of the item chosen.
Data returned: 2

---

Experiment: Cytotoxicity against human PBMC after 7 days by XTT assay
Type: cell-based
Settings: PBMC (peripheral blood mononuclear cells)
quantity.kind: CC50 at 168 h (µM)
Write the answer as a number in µM, unit excluded.

Solved entries (count: 4):
[[record]]
structure_as_smiles = "CCOC(=O)c1cn(CP(=O)(OC(C)C)OC(C)C)c2ccc(C)cc2c1=O"
quantity_kind = "CC50 at 168 h"
measured_number = 1320

[[record]]
structure_as_smiles = "CCOC(=O)c1cn(CP(=O)(OC(C)C)OC(C)C)c2cc(F)ccc2c1=O"
quantity_kind = "CC50 at 168 h"
measured_number = 2940

[[record]]
structure_as_smiles = "CCOC(=O)c1cn(CP(=O)(OC(C)C)OC(C)C)c2cc([N+](=O)[O-])ccc2c1=O"
quantity_kind = "CC50 at 168 h"
measured_number = 812

[[record]]
structure_as_smiles = "CCOC(=O)c1cn(CP(=O)(OC(C)C)OC(C)C)c2ccccc2c1=O"
quantity_kind = "CC50 at 168 h"
measured_number = 2310


Data request: Given CCOC(=O)c1cn(CP(=O)(OC(C)C)OC(C)C)c2ccc(Cl)cc2c1=O , state its recorded CC50 at 168 h.
Data returned: 1240

Data request: Please give the measured CC50 at 168 h for this compound: CCOC(=O)c1cn(CP(=O)(OC(C)C)OC(C)C)c2ccc([N+](=O)[O-])cc2c1=O
Data returned: 931

Data request: Can you look up the measured CC50 at 168 h of CCOC(=O)c1cn(CP(=O)(OC(C)C)OC(C)C)c2ccc(F)cc2c1=O for me?
Data returned: 2500

Data request: Looking for the measured CC50 at 168 h of CCOC(=O)c1cn(CP(=O)(OC(C)C)OC(C)C)c2cc(Br)ccc2c1=O , can you help?
Data returned: 731

Data request: Entry CCOC(=O)c1cn(CP(=O)(OC(C)C)OC(C)C)c2cc(Cl)ccc2c1=O has what CC50 at 168 h?
Data returned: 828

Data request: State the recorded CC50 at 168 h for this entry: Cc1cn([C@H]2C[C@H](N=[N+]=[N-])[C@@H](CO)O2)c(=O)[nH]c1=O
Data returned: 128

Data request: I have this compound here, CCOC(=O)c1cn(CP(=O)(OC(C)C)OC(C)C)c2cc(C)ccc2c1=O , and I need its recorded CC50 at 168 h.
Data returned: 1120

Data request: Query: CC50 at 168 h; subject: CCOC(=O)c1cn(CP(=O)(OC(C)C)OC(C)C)c2ccc(Br)cc2c1=O
Data returned: 802
